Biological target: ENaC (Mus musculus, UniProt Q61180+Q9WU38+Q9WU39)
Construct: Mouse kidney M-1 cells were cultivated in DMEM containing 5% FCS and 5 μM dexamethasone; endogenous in cells
Sequence (Q61180 1-699): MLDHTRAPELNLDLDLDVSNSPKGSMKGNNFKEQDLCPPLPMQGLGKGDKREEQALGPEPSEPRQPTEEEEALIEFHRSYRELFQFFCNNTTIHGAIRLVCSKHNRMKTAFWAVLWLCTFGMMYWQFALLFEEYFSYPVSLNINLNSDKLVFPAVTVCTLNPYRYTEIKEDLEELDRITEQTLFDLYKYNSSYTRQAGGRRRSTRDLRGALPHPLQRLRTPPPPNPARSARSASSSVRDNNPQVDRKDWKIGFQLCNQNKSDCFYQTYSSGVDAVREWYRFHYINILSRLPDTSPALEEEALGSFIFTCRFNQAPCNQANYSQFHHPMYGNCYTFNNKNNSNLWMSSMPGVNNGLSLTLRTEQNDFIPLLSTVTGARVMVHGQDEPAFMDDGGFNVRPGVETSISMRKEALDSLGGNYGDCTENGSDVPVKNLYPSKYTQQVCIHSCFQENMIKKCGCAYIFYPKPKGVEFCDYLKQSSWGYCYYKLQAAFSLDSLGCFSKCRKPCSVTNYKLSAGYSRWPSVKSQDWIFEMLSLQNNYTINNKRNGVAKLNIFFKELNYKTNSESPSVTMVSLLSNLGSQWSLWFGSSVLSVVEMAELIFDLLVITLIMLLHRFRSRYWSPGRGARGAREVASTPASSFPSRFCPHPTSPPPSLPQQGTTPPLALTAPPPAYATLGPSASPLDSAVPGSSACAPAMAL
Sequence (Q9WU38 1-638): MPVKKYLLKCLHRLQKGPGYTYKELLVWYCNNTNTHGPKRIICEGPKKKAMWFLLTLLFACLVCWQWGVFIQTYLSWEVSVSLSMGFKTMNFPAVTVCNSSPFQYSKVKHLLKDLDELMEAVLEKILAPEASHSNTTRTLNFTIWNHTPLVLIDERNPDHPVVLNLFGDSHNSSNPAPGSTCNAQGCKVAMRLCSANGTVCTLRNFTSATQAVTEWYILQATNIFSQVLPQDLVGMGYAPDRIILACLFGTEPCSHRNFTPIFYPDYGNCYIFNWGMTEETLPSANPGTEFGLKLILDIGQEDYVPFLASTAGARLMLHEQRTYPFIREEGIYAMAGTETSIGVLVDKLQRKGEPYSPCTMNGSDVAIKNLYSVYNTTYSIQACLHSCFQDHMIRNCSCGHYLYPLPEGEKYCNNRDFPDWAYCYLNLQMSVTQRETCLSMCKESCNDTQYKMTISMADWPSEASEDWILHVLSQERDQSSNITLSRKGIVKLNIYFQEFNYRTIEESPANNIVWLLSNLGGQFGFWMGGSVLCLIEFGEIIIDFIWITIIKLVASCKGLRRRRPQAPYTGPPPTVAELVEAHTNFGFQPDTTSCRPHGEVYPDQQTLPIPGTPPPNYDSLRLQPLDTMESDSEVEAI
Sequence (Q9WU39 1-655): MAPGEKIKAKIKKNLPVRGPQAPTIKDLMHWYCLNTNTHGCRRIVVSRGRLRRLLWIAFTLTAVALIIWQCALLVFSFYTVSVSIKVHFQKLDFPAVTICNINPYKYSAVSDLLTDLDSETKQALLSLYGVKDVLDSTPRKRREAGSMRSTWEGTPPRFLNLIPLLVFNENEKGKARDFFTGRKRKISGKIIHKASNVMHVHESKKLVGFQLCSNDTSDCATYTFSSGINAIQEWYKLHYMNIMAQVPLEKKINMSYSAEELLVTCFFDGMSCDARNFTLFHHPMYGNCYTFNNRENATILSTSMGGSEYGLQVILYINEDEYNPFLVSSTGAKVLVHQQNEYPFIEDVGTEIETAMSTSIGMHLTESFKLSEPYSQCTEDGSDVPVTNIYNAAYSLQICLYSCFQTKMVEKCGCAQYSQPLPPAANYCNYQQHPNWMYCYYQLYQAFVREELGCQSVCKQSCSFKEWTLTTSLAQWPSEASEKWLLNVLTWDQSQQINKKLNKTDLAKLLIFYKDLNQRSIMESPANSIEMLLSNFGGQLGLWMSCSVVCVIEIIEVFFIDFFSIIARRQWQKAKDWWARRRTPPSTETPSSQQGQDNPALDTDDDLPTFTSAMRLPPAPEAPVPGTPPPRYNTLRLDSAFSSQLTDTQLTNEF
Assay: Ussing chamber: short circuit current (I_sc) in mouse kidney M-1 cells, amiloride-sensitive
Settings: compound applied to apical solution, 37° C.
pIC50: −log10 of the molar value.
A collection of compounds and their measured pIC50
Value Kind: pIC50

[[record]]
compound = "CN(C(=O)C[N+]1(C)CCC(NC(N)=NC(=O)c2nc(Cl)c(N)nc2N)CC1)c1ccccc1 (stereo not drawn)"
numeric_result = 6.86

[[record]]
compound = "C[N+]1(CC(=O)NCc2ccc(Cl)cc2)CCC[C@H](N/C(N)=N/C(=O)c2nc(Cl)c(N)nc2N)C1 (mixture of isomers)"
numeric_result = 7.51

[[record]]
compound = "NC(=NC(=O)c1nc(Cl)c(N)nc1N)N[C@@H]1C[N+]2(Cc3ccc(CC(=O)O)cc3)CCC1CC2"
numeric_result = 6.20

[[record]]
compound = "COc1cc(C[N+]23CCC(CC2)C(N/C(N)=N/C(=O)c2nc(Cl)c(N)nc2N)C3)cc(OC)c1OC (stereo not drawn)"
numeric_result = 6.90

[[record]]
compound = "CCNC(=O)C[N+]1(C)CCC[C@@H](NC(N)=NC(=O)c2nc(Cl)c(N)nc2N)C1 (stereo partly drawn)"
numeric_result = 6.59

[[record]]
compound = "NC(=NC(=O)c1nc(Cl)c(N)nc1N)N[C@@H]1C[N+]2(Cc3ccc(OC(F)(F)F)cc3)CCC1CC2"
numeric_result = 7.05

[[record]]
compound = "CC(C)(C)OC(=O)C1CCN(C(=O)C[N+]23CCC(CC2)[C@H](NC(N)=NC(=O)c2nc(Cl)c(N)nc2N)C3)CC1"
numeric_result = 7.40

[[record]]
compound = "COC(=O)c1cccc(C[N+]2(C)CCC[C@H](N/C(N)=N/C(=O)c3nc(Cl)c(N)nc3N)C2)c1 (stereo in doubt)"
numeric_result = 6.91

[[record]]
compound = "NC(=NC(=O)c1nc(Cl)c(N)nc1N)N[C@@H]1C[N+]2(CC(=O)NCc3ccc(Cl)cc3)CCC1CC2"
numeric_result = 8.70


###

A collection of molecules and their measured pIC50
Target: ENaC (Mus musculus, UniProt Q61180+Q9WU38+Q9WU39)
Construct: Mouse kidney M-1 cells were cultivated in DMEM containing 5% FCS and 5 μM dexamethasone; endogenous in cells
Sequence (Q61180 1-699): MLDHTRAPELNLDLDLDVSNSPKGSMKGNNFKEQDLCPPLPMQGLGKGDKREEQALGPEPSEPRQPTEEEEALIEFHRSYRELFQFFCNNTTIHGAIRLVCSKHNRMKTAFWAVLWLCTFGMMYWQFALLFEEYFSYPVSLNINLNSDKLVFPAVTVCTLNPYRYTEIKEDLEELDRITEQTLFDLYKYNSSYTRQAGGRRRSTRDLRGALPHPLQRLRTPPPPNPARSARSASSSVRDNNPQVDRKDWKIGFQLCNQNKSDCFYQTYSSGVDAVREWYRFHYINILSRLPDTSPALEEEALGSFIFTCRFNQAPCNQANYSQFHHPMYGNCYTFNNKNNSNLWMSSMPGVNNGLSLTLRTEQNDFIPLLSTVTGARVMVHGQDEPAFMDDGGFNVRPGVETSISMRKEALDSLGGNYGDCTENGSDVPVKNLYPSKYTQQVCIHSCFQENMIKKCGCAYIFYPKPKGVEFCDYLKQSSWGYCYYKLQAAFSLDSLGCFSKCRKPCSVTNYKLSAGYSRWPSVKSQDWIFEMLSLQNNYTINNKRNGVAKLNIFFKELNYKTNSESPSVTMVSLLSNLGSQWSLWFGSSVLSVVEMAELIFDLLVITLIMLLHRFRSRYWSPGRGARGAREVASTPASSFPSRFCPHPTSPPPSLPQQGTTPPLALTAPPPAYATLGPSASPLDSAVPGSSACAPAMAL
Sequence (Q9WU38 1-638): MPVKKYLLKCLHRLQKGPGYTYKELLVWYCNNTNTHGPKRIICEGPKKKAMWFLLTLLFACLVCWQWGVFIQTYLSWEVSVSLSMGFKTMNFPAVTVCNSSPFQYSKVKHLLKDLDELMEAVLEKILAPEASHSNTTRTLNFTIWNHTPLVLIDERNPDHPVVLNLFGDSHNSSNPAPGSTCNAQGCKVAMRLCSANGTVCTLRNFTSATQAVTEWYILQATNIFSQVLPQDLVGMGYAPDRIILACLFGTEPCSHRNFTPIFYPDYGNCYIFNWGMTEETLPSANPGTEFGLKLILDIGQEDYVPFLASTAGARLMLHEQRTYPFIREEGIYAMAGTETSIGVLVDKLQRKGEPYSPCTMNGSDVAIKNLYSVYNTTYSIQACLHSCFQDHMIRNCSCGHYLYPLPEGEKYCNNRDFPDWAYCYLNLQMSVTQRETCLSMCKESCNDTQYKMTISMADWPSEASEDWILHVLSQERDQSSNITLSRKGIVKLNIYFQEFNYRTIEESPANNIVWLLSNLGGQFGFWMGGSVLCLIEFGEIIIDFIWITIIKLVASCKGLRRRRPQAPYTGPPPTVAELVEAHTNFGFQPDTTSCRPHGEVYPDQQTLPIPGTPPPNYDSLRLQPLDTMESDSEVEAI
Sequence (Q9WU39 1-655): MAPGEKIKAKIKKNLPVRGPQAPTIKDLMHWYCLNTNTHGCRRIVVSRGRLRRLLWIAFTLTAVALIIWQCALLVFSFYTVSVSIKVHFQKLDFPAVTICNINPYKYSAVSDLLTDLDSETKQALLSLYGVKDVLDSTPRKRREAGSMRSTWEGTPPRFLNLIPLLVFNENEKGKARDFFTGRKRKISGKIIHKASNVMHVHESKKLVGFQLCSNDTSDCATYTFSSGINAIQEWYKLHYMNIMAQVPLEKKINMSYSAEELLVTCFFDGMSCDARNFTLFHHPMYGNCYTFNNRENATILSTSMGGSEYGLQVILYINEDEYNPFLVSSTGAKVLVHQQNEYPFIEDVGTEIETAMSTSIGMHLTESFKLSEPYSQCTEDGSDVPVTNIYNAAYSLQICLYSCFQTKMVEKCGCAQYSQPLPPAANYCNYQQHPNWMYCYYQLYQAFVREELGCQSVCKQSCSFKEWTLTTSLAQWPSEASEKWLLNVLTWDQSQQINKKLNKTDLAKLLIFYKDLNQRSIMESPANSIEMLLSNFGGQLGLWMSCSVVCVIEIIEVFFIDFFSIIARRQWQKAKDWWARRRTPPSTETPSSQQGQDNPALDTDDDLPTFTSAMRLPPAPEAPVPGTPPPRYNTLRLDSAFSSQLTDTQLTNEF
Test: Ussing chamber: short circuit current (I_sc) in mouse kidney M-1 cells, amiloride-sensitive
Conditions: compound applied to apical solution, 37° C.
pIC50: −log10 of the molar value. Counter-ions that a name gives are not always drawn.
Value Kind: pIC50

[[record]]
molecule = "N/C(=N\\C(=O)c1nc(Cl)c(N)nc1N)NC1C[N+]2(Cc3ccccc3)CCC1CC2 (stereo not drawn) [Example 4]"
numeric_result = 7.37

[[record]]
molecule = "CCN(CC)C(=O)C[N+]12CCC(CC1)[C@H](NC(N)=NC(=O)c1nc(Cl)c(N)nc1N)C2 [Example 30]"
numeric_result = 7.46

[[record]]
molecule = "NC(=NC(=O)c1nc(Cl)c(N)nc1N)N[C@@H]1C[N+]2(CC(=O)N3CCN(c4ccccn4)CC3)CCC1CC2 [Example 62]"
numeric_result = 7.70

[[record]]
molecule = "NC(=NC(=O)c1nc(Cl)c(N)nc1N)N[C@@H]1C[N+]2(Cc3ccc(OCc4ccccc4)cc3)CCC1CC2 [Example 19]"
numeric_result = 7.49

[[record]]
molecule = "NC(=NC(=O)c1nc(Cl)c(N)nc1N)N[C@@H]1C[N+]2(Cc3cccc(SC(F)(F)F)c3)CCC1CC2 [Example 9]"
numeric_result = 8.52

[[record]]
molecule = "NC(=NC(=O)c1nc(Cl)c(N)nc1N)N[C@@H]1C[N+]2(CC(=O)N3CCOCC3)CCC1CC2 [Example 57]"
numeric_result = 7.15

[[record]]
molecule = "N/C(=N\\C(=O)c1nc(Cl)c(N)nc1N)N[C@@H]1C[N+]2(Cc3ccc4ccccc4n3)CCC1CC2 [Example 11]"
numeric_result = 7.54

[[record]]
molecule = "NC(=NC(=O)c1nc(Cl)c(N)nc1N)N[C@@H]1C[N+]2(CC(=O)NCCc3ccccc3)CCC1CC2 [Example 55]"
numeric_result = 9.00

[[record]]
molecule = "N=C(NC(=O)c1nc(Cl)c(N)nc1N)N[C@@H]1C[N+]2(CC(=O)N[C@@H](Cc3ccccc3)C(=O)O)CCC1CC2 [Example 73, hydrochloride]"
numeric_result = 8.40

[[record]]
molecule = "CC[N+]1(Cc2ccccc2)CCC(NC(N)=NC(=O)c2nc(Cl)c(N)nc2N)CC1 (stereo not drawn) [Example 70.2]"
numeric_result = 7.28

[[record]]
molecule = "NC(=NC(=O)c1nc(Cl)c(N)nc1N)N[C@@H]1C[N+]2(Cc3ccc(F)c(Cl)c3)CCC1CC2 [Example 26]"
numeric_result = 7.89

[[record]]
molecule = "COC(=O)c1ccccc1NC(=O)C[N+]1(C)CCC(NC(N)=NC(=O)c2nc(Cl)c(N)nc2N)CC1 (stereo not drawn) [Example 72.3]"
numeric_result = 7.66

[[record]]
molecule = "NC(=NC(=O)c1nc(Cl)c(N)nc1N)N[C@@H]1C[N+]2(CC(=O)NCC3CCOCC3)CCC1CC2 [Example 76]"
numeric_result = 7.41

[[record]]
molecule = "N/C(=N\\C(=O)c1nc(Cl)c(N)nc1N)N[C@@H]1C[N+]2(Cc3ccc(C(F)(F)F)nc3)CCC1CC2 [Example 12]"
numeric_result = 7.20

[[record]]
molecule = "C[N+]1(Cc2ccccc2)CCC(N/C(N)=N/C(=O)c2nc(Cl)c(N)nc2N)CC1 (stereo not drawn) [Example 70]"
numeric_result = 6.97

